- target desc: 72 kDa type IV collagenase (Homo sapiens)
- Sequence (P08253 110-660 limits assumed): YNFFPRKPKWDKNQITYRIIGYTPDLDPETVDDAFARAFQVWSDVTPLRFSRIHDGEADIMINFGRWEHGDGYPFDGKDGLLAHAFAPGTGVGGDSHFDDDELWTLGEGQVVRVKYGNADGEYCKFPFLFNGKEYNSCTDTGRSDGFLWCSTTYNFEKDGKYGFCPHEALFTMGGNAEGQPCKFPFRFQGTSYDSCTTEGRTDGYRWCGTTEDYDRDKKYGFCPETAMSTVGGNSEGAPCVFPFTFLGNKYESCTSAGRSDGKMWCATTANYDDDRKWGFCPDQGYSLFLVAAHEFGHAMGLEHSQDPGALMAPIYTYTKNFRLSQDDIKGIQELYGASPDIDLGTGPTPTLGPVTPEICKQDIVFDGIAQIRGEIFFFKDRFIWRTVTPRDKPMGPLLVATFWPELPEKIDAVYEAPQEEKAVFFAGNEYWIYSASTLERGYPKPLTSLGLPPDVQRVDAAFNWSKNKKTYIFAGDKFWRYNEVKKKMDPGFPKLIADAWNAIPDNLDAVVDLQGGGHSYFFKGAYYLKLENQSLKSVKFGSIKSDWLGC
- experimental protocol: Inhibition of human MMP2 catalytic domain at 50 uM after 1 hr by fluorescent substrate assay
assay readout: inhibition (%)

// worked examples, inhibition included
COc1ccc(CNC(=O)c2c(C)oc(CO)c(O)c2=O)cc1 : 24
Cc1cc(=O)c(O)c(COCc2ccc(-c3ccccc3)cc2)o1 : 15
O=C(NCc1ccc(-c2ccccc2)cc1)c1cc(=S)c(O)co1 : 98
O=C(NCc1ccc(-c2ccccc2)cc1)c1cc(=O)c(O)co1 : 14
COc1ccc(CNC(=O)c2c(C)occ(O)c2=O)cc1 : 33
Cc1occ(O)c(=S)c1C(=O)NCc1ccc(-c2ccccc2)cc1 : 94
COc1ccc(CNC(=O)c2c(C)occ(O)c2=S)cc1 : 69
Cc1occ(O)c(=O)c1C(=O)NCc1ccc(-c2ccccc2)cc1 : 21
COc1ccc(CNC(=O)c2oc(C)cc(=S)c2O)cc1 : 94
Cc1cc(=O)c(O)c(CNCc2ccc(-c3ccccc3)cc2)o1 : 63

P = CCOC(=O)c1c(C)oc(CNCc2ccc(-c3ccccc3)cc2)c(O)c1=O
Q = COc1ccc(CNC(=O)c2cc(=S)c(O)co2)cc1
R = COc1ccc(CNC(=O)c2oc(C)cc(=O)c2O)cc1
S = COc1ccc(CNC(=O)c2cc(=O)c(O)co2)cc1
// ascending sort on recorded inhibition # the answer lists labels in the order requested
S, P, R, Q

###

- target desc: Interstitial collagenase (Homo sapiens)
- experimental protocol: Inhibition of human MMP1 catalytic domain at 50 uM after 1 hr by fluorescent substrate assay
assay readout: inhibition (%)

// worked examples, inhibition included
Cc1occ(O)c(=O)c1C(=O)NCc1ccc(-c2ccccc2)cc1 : 15
Cc1occ(O)c(=O)c1C(=O)NCc1ccc(O)cc1 : 17

I = Cc1cc(=O)c(O)c(CNCc2ccc(-c3ccccc3)cc2)o1
II = O=C(NCc1ccc(-c2ccccc2)cc1)c1cc(=O)c(O)co1
III = COc1ccc(CNC(=O)c2oc(C)cc(=O)c2O)cc1
IV = O=C(NCc1ccc(-c2ccccc2)cc1)c1cc(=S)c(O)co1
// ascending sort on recorded inhibition # the answer lists labels in the order requested
I, II, III, IV

###

- target desc: Stromelysin-1 (Homo sapiens)
- Sequence (P08254 whole entry): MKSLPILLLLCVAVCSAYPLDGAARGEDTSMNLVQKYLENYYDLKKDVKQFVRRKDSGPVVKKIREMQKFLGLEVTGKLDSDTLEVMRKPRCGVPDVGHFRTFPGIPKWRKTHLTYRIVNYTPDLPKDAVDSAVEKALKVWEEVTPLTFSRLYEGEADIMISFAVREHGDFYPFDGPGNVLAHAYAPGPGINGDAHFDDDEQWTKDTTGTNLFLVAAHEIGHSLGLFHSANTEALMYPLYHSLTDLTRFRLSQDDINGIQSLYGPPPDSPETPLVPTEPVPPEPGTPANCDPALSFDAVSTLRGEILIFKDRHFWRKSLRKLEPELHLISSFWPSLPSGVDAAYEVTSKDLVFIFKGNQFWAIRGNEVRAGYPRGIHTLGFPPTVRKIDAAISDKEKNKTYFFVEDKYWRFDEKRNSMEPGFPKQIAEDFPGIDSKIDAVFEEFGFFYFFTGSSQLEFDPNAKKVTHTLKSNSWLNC
assay readout: pIC50
In simple prose, pIC50 is minus the logarithm base ten of a concentration in moles per litre.

Per the reported Stromelysin-1 (Homo sapiens) data, COc1ccc(CNC(=O)c2oc(C)cc(=S)c2O)cc1 has pIC50 of 4.79

###

- target desc: Interstitial collagenase (Homo sapiens) (UniProt P03956)
- Sequence (P03956 whole entry, the tested form may be a part): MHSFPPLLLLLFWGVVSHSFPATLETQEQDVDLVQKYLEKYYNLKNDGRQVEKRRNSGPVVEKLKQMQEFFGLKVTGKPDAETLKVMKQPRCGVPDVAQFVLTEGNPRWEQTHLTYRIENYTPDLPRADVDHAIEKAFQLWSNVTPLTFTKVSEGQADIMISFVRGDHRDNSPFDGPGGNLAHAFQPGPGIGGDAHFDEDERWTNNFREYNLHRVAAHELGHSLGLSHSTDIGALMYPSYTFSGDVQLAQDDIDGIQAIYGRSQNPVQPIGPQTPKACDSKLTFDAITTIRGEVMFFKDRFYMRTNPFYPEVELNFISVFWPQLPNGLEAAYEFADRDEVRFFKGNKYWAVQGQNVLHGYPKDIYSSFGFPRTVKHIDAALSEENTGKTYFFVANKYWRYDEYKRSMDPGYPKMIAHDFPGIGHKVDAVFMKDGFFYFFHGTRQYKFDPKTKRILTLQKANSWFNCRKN
- experimental protocol: Inhibition of human MMP1 catalytic domain at 50 uM after 1 hr by fluorescent substrate assay
assay readout: inhibition (%)

COc1ccc(CNC(=O)c2c(C)occ(O)c2=O)cc1 : 15
CCOC(=O)c1c(C)oc(CNCc2ccc(-c3ccccc3)cc2)c(O)c1=O : 13
COc1ccc(CNC(=O)c2c(C)oc(CO)c(O)c2=O)cc1 : 18

I = COc1ccc(CNC(=O)c2c(C)occ(O)c2=S)cc1
II = COc1ccc(CNC(=O)c2oc(C)cc(=S)c2O)cc1
III = COc1ccc(CNC(=O)c2cc(=O)c(O)co2)cc1
// ascending sort on recorded inhibition # the answer lists labels in the order requested
III, I, II
(III: 16%, I: 49%, II: 70%)

a = Cc1occ(O)c(=S)c1C(=O)NCc1ccc(-c2ccccc2)cc1
b = COc1ccc(CNC(=O)c2cc(=S)c(O)co2)cc1
c = Cc1cc(=O)c(O)c(COCc2ccc(-c3ccccc3)cc2)o1
// sort entries: inhibition, high to low # the answer lists labels in the order requested
a, b, c
(a: 52%, b: 31%, c: 21%)
